study_target: T1, mouse tissue factor pathway inhibitor (TFPI) (mouse, UniProt O54819 29-289, limits assumed)
T1 construct: bought; also called mTFPI; murine TFPI
T1 sequence (looked up): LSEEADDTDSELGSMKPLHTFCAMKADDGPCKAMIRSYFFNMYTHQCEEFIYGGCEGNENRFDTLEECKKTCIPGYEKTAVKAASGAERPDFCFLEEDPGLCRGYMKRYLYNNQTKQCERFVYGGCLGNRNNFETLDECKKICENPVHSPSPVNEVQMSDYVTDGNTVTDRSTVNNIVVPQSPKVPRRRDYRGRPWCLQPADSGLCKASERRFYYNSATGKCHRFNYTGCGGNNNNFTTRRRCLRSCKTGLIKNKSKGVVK
measurement_description: competitive ELISA
Decide using variant/HC_D62R alone. Strictly below 40 ratio: met. Equal to or above 40 ratio: not met.

binder: 4B7 HC D62R+H107M+Y112D/LC F31I+D33R+N35I (Fab, V domains shown) VH: QVQLQQSGPGLVKPSQTLSLTCAISGDSVSSNSAAWSWIRQSPGRGLEWLGIIYKRSKWYNRYAVSVKSRITINPDTSKNQFSLQLNSVTPEDTAVYYCARWHSDKMWGFDDWGQGTLVTVSS VL: DIVMTQSPLSLPVTPGEPASISCRSSQSLVISRGITYLNWYLQKPGQSPQLLIYKGSNRASGVPDRFSGSGSGTDFTLKISRVEAEDVGVYYCQQYDSYPLTFGQGTKVEIKR
qualitative_label: met
--
binder: 4B7 HC N32D+D62Q+H107M+Y112D/LC F31M+D33F+N35T+Y37F (Fab, V domains shown) VH: QVQLQQSGPGLVKPSQTLSLTCAISGDSVSSDSAAWSWIRQSPGRGLEWLGIIYKRSKWYNQYAVSVKSRITINPDTSKNQFSLQLNSVTPEDTAVYYCARWHSDKMWGFDDWGQGTLVTVSS VL: DIVMTQSPLSLPVTPGEPASISCRSSQSLVMSFGTTFLNWYLQKPGQSPQLLIYKGSNRASGVPDRFSGSGSGTDFTLKISRVEAEDVGVYYCQQYDSYPLTFGQGTKVEIKR
qualitative_label: met
--
binder: 4B7 HC N32D+D62R+H107M+Y112D/LC D33F+N35T+Y37F (Fab, V domains shown) VH: QVQLQQSGPGLVKPSQTLSLTCAISGDSVSSDSAAWSWIRQSPGRGLEWLGIIYKRSKWYNRYAVSVKSRITINPDTSKNQFSLQLNSVTPEDTAVYYCARWHSDKMWGFDDWGQGTLVTVSS VL: DIVMTQSPLSLPVTPGEPASISCRSSQSLVFSFGTTFLNWYLQKPGQSPQLLIYKGSNRASGVPDRFSGSGSGTDFTLKISRVEAEDVGVYYCQQYDSYPLTFGQGTKVEIKR
qualitative_label: not met
--
binder: 4B7 HC N32D+D62R+Y112D/LC S32R+D33R (Fab, V domains shown) VH: QVQLQQSGPGLVKPSQTLSLTCAISGDSVSSDSAAWSWIRQSPGRGLEWLGIIYKRSKWYNRYAVSVKSRITINPDTSKNQFSLQLNSVTPEDTAVYYCARWHSDKHWGFDDWGQGTLVTVSS VL: DIVMTQSPLSLPVTPGEPASISCRSSQSLVFRRGNTYLNWYLQKPGQSPQLLIYKGSNRASGVPDRFSGSGSGTDFTLKISRVEAEDVGVYYCQQYDSYPLTFGQGTKVEIKR
qualitative_label: met

Continue with the binder presented below.
Input: variant/HC_D62R under 40 ratio? Item: 4B7 HC N32D+D62Q+H107M+Y112D/LC F31M+S32R+D33F+N35I+D97T (Fab, V domains shown) VH: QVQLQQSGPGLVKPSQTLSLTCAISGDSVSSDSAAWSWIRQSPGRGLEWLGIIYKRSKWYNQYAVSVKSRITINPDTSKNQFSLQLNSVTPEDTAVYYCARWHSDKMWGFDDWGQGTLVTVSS VL: DIVMTQSPLSLPVTPGEPASISCRSSQSLVMRFGITYLNWYLQKPGQSPQLLIYKGSNRASGVPDRFSGSGSGTDFTLKISRVEAEDVGVYYCQQYTSYPLTFGQGTKVEIKR
Output: met
